# tested_on: Avi-KRAS G12V (1-169) GppNHp/RAF1 RBD-3xFLAG (52-151) (Homo sapiens, UniProt P01116, G12V)
# Construct: Avi-KRAS G12V (1-169)
# Sequence (P01116 1-169 isoform P01116-2 G12V): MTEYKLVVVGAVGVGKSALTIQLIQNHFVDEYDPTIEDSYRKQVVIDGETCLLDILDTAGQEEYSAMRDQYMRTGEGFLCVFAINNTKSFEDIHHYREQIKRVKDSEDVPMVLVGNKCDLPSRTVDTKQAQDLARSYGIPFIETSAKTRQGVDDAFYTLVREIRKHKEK
# measurement_protocol: Raf1-KRAS G12V-GppNHP disruption HTRF assay (Biological Example 1)
# Type: binding
# experimental_parameters: KRAS G12V, GppNHp-loaded; Table 11
# Method: A protein:protein interaction (PPI) Homogeneous Time Resolved Fluorescence (HTRF) assay was used to determine the effectiveness of compounds of the present disclosure in disrupting KRAS protein and effector RAF1 binding. The assay buffer included: 50 mM Tris pH 7.5, 100 mM NaCl, 5 mM MgCl2, 0.1% BSA, 0.01% Tween, and 10% DMSO. The bead buffer included: 50 mM Tris pH 7.5, and 0.01% Tween 20. […] Data was reported as percentage of activity, with DMSO as 100%. Data was plotted and analyzed using Prism 8.
pIC50: −log10 of the molar value.
Parameter pIC50: see the listing below.
measured_attribute: pIC50

{"compound": "N#Cc1c(N)sc2c(F)ccc(-c3c(C(F)(F)F)cc4c(N5CCC6(CC5)CC(O)C6)nc(OC[C@@]56CCCN5C[C@H](F)C6)nc4c3F)c12", "measured_attribute": "pIC50", "recorded_value": "6.00 to 7.00"}
{"compound": "CCN(c1nc(OC[C@@]23CCCN2C[C@H](F)C3)nc2c(F)c(-c3ccc(F)c4sc(N)c(C#N)c34)c(C(F)(F)F)cc12)[C@H]1C[C@@H](O)C1", "measured_attribute": "pIC50", "recorded_value": "6.00 to 7.00"}
{"compound": "C[C@@H]1CN(c2nc(OC[C@@]34CCCN3C[C@H](F)C4)nc3c(F)c(-c4ccc(F)c5sc(N)c(C#N)c45)c(C(F)(F)F)cc23)C[C@H](C)O1", "measured_attribute": "pIC50", "recorded_value": "5.00 to 6.00"}
{"compound": "CCN(C)c1nc(OC[C@@]23CCCN2C[C@H](F)C3)nc2c(F)c(-c3ccc(F)c4sc(N)c(C#N)c34)c(C(F)(F)F)cc12 [Compound 81]", "measured_attribute": "pIC50", "recorded_value": "6.00 to 7.00"}
{"compound": "N#Cc1c(N)sc2c(F)ccc(-c3c(C(F)(F)F)cc4c(N5CCCS(=O)(=O)CC5)nc(OC[C@@]56CCCN5C[C@H](F)C6)nc4c3F)c12", "measured_attribute": "pIC50", "recorded_value": "6.00 to 7.00"}
{"compound": "CN(c1nc(OC[C@@]23CCCN2C[C@H](F)C3)nc2c(F)c(-c3ccc(F)c4sc(N)c(C#N)c34)c(C(F)(F)F)cc12)[C@H]1C[C@@H](O)C1 (single isomer, unassigned) [Compound 20]", "measured_attribute": "pIC50", "recorded_value": "5.00 to 6.00"}
{"compound": "N#Cc1c(N)sc2c(F)ccc(-c3c(C(F)(F)F)cc4c(N5C[C@H]6C[C@@H]5CO6)nc(OC[C@@]56CCCN5C[C@H](F)C6)nc4c3F)c12", "measured_attribute": "pIC50", "recorded_value": "6.00 to 7.00"}
{"compound": "CCN(c1nc(OC[C@@]23CCCN2C[C@H](F)C3)nc2c(F)c(-c3ccc(F)c4sc(N)c(C#N)c34)c(C(F)(F)F)cc12)[C@@H]1CCN(C(C)=O)C1", "measured_attribute": "pIC50", "recorded_value": "6.00 to 7.00"}
{"compound": "N#Cc1c(N)sc2c(F)ccc(-c3c(C(F)(F)F)cc4c(N5CCn6nncc6C5)nc(OC[C@@]56CCCN5C[C@H](F)C6)nc4c3F)c12", "measured_attribute": "pIC50", "recorded_value": "6.00 to 7.00"}
{"compound": "N#Cc1c(N)sc2c(F)ccc(-c3c(C(F)(F)F)cc4c(N5CC6CC(C5)O6)nc(OC[C@@]56CCCN5C[C@H](F)C6)nc4c3F)c12 (single isomer, unassigned) [Compound 275]", "measured_attribute": "pIC50", "recorded_value": "6.00 to 7.00"}
{"compound": "N#Cc1c(N)sc2c(F)ccc(-c3c(C(F)(F)F)cc4c(N5CCS(=O)(=O)CC5)nc(OC[C@@]56CCCN5C[C@H](F)C6)nc4c3F)c12", "measured_attribute": "pIC50", "recorded_value": "6.00 to 7.00"}
{"compound": "N#Cc1c(N)sc2c(F)ccc(-c3c(C(F)(F)F)cc4c(N5CC(F)(F)C5)nc(OC[C@@]56CCCN5C[C@H](F)C6)nc4c3F)c12", "measured_attribute": "pIC50", "recorded_value": "6.00 to 7.00"}
{"compound": "N#Cc1c(N)sc2c(F)ccc(-c3c(C(F)(F)F)cc4c(N5CC[C@H]5CO)nc(OC[C@@]56CCCN5C[C@H](F)C6)nc4c3F)c12", "measured_attribute": "pIC50", "recorded_value": "6.00 to 7.00"}
{"compound": "N#Cc1c(N)sc2c(F)ccc(-c3c(C(F)(F)F)cc4c(N5CCCC6(C5)NC(=O)NC6=O)nc(OC[C@@]56CCCN5C[C@H](F)C6)nc4c3F)c12 (stereo partly shown)", "measured_attribute": "pIC50", "recorded_value": "6.00 to 7.00"}
{"compound": "CC(=O)N1CC[C@H](N(C)c2nc(OC[C@@]34CCCN3C[C@H](F)C4)nc3c(F)c(-c4ccc(F)c5sc(N)c(C#N)c45)c(C(F)(F)F)cc23)[C@@H]1C (single isomer, unassigned) [Compound 195]", "measured_attribute": "pIC50", "recorded_value": "5.00 to 6.00"}
{"compound": "CC(=O)N1CCN(c2nc(OC[C@@]34CCCN3C[C@H](F)C4)nc3c(F)c(-c4ccc(F)c5sc(N)c(C#N)c45)c(C(F)(F)F)cc23)CC1", "measured_attribute": "pIC50", "recorded_value": "5.00 to 6.00"}
{"compound": "CN(c1nc(OCC23CCCN2CCC3)nc2c(F)c(-c3ccc(F)c4sc(N)nc34)c(C(F)(F)F)cc12)[C@H]1C[C@H](O)C1 (atropisomer, axis not shown)", "measured_attribute": "pIC50", "recorded_value": "5.00 to 6.00"}
{"compound": "CC(=O)N1CC[C@H](N(C)c2nc(OC[C@@H]3CCCN3C)nc3c(F)c(-c4ccc(F)c5sc(N)c(C#N)c45)c(C(F)(F)F)cc23)[C@@H]1C", "measured_attribute": "pIC50", "recorded_value": "< 5.00"}
{"compound": "CN(C[C@H](O)CO)c1nc(OC[C@@]23CCCN2C[C@H](F)C3)nc2c(F)c(-c3ccc(F)c4sc(N)c(C#N)c34)c(C(F)(F)F)cc12", "measured_attribute": "pIC50", "recorded_value": "6.00 to 7.00"}
{"compound": "Nc1nc2c(-c3c(C(F)(F)F)cc4c(N5CCC(O)C5)nc(OCC56CCCN5CCC6)nc4c3F)ccc(F)c2s1 (stereo not shown)", "measured_attribute": "pIC50", "recorded_value": "< 5.00"}
{"compound": "CN(c1nc(OC[C@@]23CCCN2C[C@H](F)C3)nc2c(F)c(-c3ccc(F)c4sc(N)c(C#N)c34)c(C(F)(F)F)cc12)C1CCC(O)CC1 (stereo partly shown) [Compound 65]", "measured_attribute": "pIC50", "recorded_value": "6.00 to 7.00"}
{"compound": "CC(=O)N1C[C@H]2CCN(c3nc(OC[C@@]45CCCN4C[C@H](F)C5)nc4c(F)c(-c5ccc(F)c6sc(N)c(C#N)c56)c(C(F)(F)F)cc34)[C@H]2C1", "measured_attribute": "pIC50", "recorded_value": "6.00 to 7.00"}
